B1: HESX1 (parent)
chain: ENKPSTCSFSIERILGLDQKKDCV

Variants of: B1
assay.info: protein stability index of a GFP-peptide fusion (GPS, HEK-293T) (PSI 1-6); higher = more stable;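 note: lentivirally expressed fusions sorted by FACS into six bins by GFP to DsRed ratio, PSI derived from sequencing read proportions per bin multiplied by bin number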
condition: c terminus: a fixed tail appended
Assign fulfilled to entries whose protein stability index meets or exceeds 3; assign not fulfilled to the rest.

INSERT INTO assay_data (monomer_sequence, group) VALUES
  ('ENKPSTCSFTIERILGLDQKKDCV [S10T]', 'fulfilled'),
  ('ENKPSTCSFSIERILGLDQKWDCV [K21W]', 'not fulfilled'),
  ('WNKPSTCSFSIERILGLDQKKDCV [E1W]', 'not fulfilled'),
  ('ENKPSTCSFSIERILGLDQKKDNV [C23N]', 'fulfilled'),
  ('ENKPSTCSFSIERILPLDQKKDCV [G16P]', 'fulfilled');

stdin: Could you verify whether the entry ENKPSTCSFSIEHILGLDQKKDCV [R13H] shows protein stability index of no less than 3?
stdout: fulfilled

stdin: Could you verify whether the entry ENKPSTKSFSIERILGLDQKKDCV [C7K] shows protein stability index of no less than 3?
stdout: fulfilled

stdin: Could you verify whether the entry EPKPSTCSFSIERILGLDQKKDCV [N2P] shows protein stability index of no less than 3?
stdout: not fulfilled

stdin: Could you verify whether the entry ENKPSTCSFSIERILGLDQKKDLV [C23L] shows protein stability index of no less than 3?
stdout: not fulfilled

stdin: Could you verify whether the entry ENCPSTCSFSIERILGLDQKKDCV [K3C] shows protein stability index of no less than 3?
stdout: not fulfilled

stdin: Could you verify whether the entry ENKPSTCSFSIERILGLDQVKDCV [K20V] shows protein stability index of no less than 3?
stdout: not fulfilled
